A collection of molecules and their measured TC50/IC50
experimentDescription: Ratio of TC50 value to the IC50 value measured on rhinovirus-14 by using CPE/XTT assay.
Format: functional
API doc: respond with a numeric literal and nothing else, no unit.

CNC(=O)/C=C(\c1ccccc1)c1ccc2nc(N)c(-c3cc(F)ccc3F)n2c1 ... 30
CNC(=O)/C=C(\c1ccccc1)c1ccc2nc(N)c(SC(C)C)n2c1 ... 48
CNC(=O)/C=C(\c1ccccc1)c1ccc2nc(N)c(-c3ccc(F)c(F)c3F)n2c1 ... 33

Next molecule, TC50/IC50 to be filled in.
I have this molecule here, "CNC(=O)/C=C(\c1ccccc1)c1ccc2nc(N)c(-c3ccccc3)n2c1" , and I need its recorded TC50/IC50. 17
